# Ratio of KD in solution/immobilised for human MSLN-His-Avi per record follows
experimental_target: T1, human MSLN-His-Avi (human, UniProt Q13421 296-598, single biotin (BirA) in the biotinylated form)
T1 construct: Monomeric, made in HEK293-6E; Used both immobilised and in solution; also called hMSLN-His-Avi; biotinylated hMSLN-His-Avi
T1 sequence (Q13421 other isoform, or with tags, fused parts or gaps): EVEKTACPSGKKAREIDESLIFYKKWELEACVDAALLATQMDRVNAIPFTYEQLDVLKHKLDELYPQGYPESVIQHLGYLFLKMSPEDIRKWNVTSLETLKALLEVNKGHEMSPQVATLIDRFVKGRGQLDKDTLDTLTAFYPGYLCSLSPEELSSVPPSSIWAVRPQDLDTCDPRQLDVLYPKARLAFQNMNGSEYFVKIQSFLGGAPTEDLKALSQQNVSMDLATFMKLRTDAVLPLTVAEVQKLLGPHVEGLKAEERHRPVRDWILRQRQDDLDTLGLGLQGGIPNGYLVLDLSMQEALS
assay_name: ratio of the two SPR KD
quantity_kind: Ratio of KD in solution/immobilised for human MSLN-His-Avi

{"columns": ["binder", "result"],
 "data": [
  ["FS28-256-273 (in CD137 mAb^2 format) (bispecific antibody, V domains shown) VH: EVQLLESGGGLVQPGGSLRLSCAASGFTFTHTYMSWVRQAPGKGLEWVSSISPTYSTTNYADSVKGRFTISRDNNKNTLYLQMNSLRAEDTAVYYCARYNAYHAALDYWGQGTLVTVSS VL: EIVLTQSPGTLSLSPGERATLSCRASQSVSSSYLAWYQQKPGQAPRLLIYGASSRATGIPDRFSGSGSGTDFTLTISRLEPEDFAVYYCQQTVPYPYTFGQGTKVEIK", 1.2],
  ["FS28-256-272 (in CD137 mAb^2 format) (bispecific antibody, V domains shown, Position 55 is IMGT numbering, not the count on the entry) VH: EVQLLESGGGLVQPGGSLRLSCAASGFTFTHTYMSWVRQAPGKGLEWVSHISPTYSTTNYADSVKGRFTISRDNNKNTLYLQMNSLRAEDTAVYYCARYNAYHAALDYWGQGTLVTVSS VL: EIVLTQSPGTLSLSPGERATLSCRASQSVSSSYLAWYQQKPGQAPRLLIYGASSRATGIPDRFSGSGSGTDFTLTISRLEPEDFAVYYCQQTVPYPYTFGQGTKVEIK", 0.7],
  ["FS28-256-271 (in CD137 mAb^2 format) (bispecific antibody, V domains shown) VH: EVQLLESGGGLVQPGGSLRLSCAASGFTFTHTYMSWVRQAPGKGLEWVSAISPTYSTTNYADSVKGRFTISRDNNKNTLYLQMNSLRAEDTAVYYCARYNAYHAALDYWGQGTLVTVSS VL: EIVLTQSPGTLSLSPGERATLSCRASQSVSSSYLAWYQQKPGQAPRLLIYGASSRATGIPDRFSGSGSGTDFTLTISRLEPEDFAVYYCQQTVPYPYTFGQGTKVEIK", 3]
]}
